- target system: human FXR (Homo sapiens)
- Sequence (Q96RI1 262-486 limits assumed): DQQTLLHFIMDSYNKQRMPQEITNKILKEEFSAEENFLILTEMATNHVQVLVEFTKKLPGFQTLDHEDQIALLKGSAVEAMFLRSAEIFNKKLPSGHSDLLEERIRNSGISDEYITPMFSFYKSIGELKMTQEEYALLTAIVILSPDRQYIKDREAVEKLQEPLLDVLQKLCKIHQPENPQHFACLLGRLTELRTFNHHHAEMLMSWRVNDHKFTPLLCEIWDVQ
- method: transient human FXR/Gal4-luciferase reporter assay
- applied conditions: Gal4-hFXR LBD fusion, luciferase reporter in HEK293 cells; response relative to 8 μM GW-4064
readout label: EC50 (nM)

Please review the entries below; each comes with its answer.
Query block: Form entry - test system: human FXR (Homo sapiens); read-out: EC50; molecule: COc1cc(-c2cccc(N(CC34CCC(c5nc(C6CC6)no5)(CC3)CC4)C(=O)C3CCCCC3)c2)no1
Result block: 129

Query block: And then CC(F)(F)c1nc(C23CCC(CN(C(=O)C4CCC(F)(F)CC4)c4cccc(-c5ccc(OC(F)F)cc5)c4)(CC2)CC3)no1 , what is it?
Result block: 69

Query block: Then O=C(C1CCOCC1)N(CC12CCC(c3nc(C4CC4)no3)(CC1)CC2)c1cccc(-c2cnc(C3CC3)o2)c1 ?
Result block: 74

Query block: Repeat for the following molecule: CC(C)(C)c1nc(C23CCC(CN(C(=O)C4CCOCC4)c4cccc(-c5ccc(OC(F)F)cc5)c4)(CC2)CC3)no1
Result block: 96

Query block: Try this molecule too: O=C(C1CCOCC1)N(CC12CCC(c3nc(C4CC4)no3)(CC1)CC2)c1cccc(-c2nc(C3CC3)no2)c1
Result block: 134

Query block: Please answer likewise for CCc1noc(-c2cccc(N(CC34CCC(c5nc(C)no5)(CC3)CC4)C(=O)C3CCCCC3)c2)n1
Result block: 158

a. CC(C)(C)c1nnc(C23CCC(CN(C(=O)C4CCC(F)(F)CC4)c4cccc(-c5nc(C6CC6)no5)c4)(CC2)CC3)o1
b. CN1CCN(C(=O)N(CC23CCC(c4nc(C5CC5)no4)(CC2)CC3)c2cccc(-c3nc(C4CC4)no3)c2)CC1
c. CC(C)(C)OC(=O)N1CCC(C(=O)N(CC23CCC(c4nc(C5CC5)no4)(CC2)CC3)c2cccc(-c3nc(C(F)F)co3)c2)CC1
d. COc1nccc(-c2cccc(N(CC34CCC(c5nc(C6CC6)no5)(CC3)CC4)C(=O)C3CCC(F)(F)CC3)c2)n1
e. COc1cccc(-c2cccc(N(CC34CCC(c5nc(C6CC6)no5)(CC3)CC4)C(=O)C3CCCCC3)c2)c1
Query block: Hi! Can you put these in order of EC50, lowest number first? Hello, could you send the labels back in the order asked? Thank you.
Result block: e, a, d, b, c
(e: 151 nM, a: 280 nM, d: 787 nM, b: 1380 nM, c: 4390 nM)

Hey, just so you know, these numbers are from patent US12227496B2.
